Test system: TDP-43 BiFC cells
Test: Cell viability (stained nuclei count) in TDP-43-BiFC cells
Type: cell-based
Details: Forskolin-only group = 100%
Method: To screen for new TDP-43 aggregation inhibitors, a TDP-43-BiFC cell model that facilitates observation of TDP-43 aggregate formation in living cells was used. […] After 48 hours, nuclei within cells were stained using Hoechst (treatment concentration 1 µg/mL), and BiFC fluorescence intensity was automatically quantified using Operetta (PerkinElmer) to count the stained nuclei in each well from the entire plate. […]
Flag rule - Cell viability (%) (@ 3 uM) less than 70% flags yes; the remaining entries get no.

Past entries and their recorded results:
COMPOUND: CCn1c(N2CCOCC2)nc2cc(NN=C(C#N)C#N)ccc21 [Compound 33]
QUALITATIVE LABEL: yes
//
COMPOUND: COC1CCN(c2nc3ccc(NN=C(C#N)C#N)cc3s2)CC1 [Compound 9]
QUALITATIVE LABEL: no

# strict comparison: is reported Cell viability (%) (@ 3 uM) < 70%? input = N#CC(C#N)=NNc1ccc2nc(N3CCCCC3)oc2c1 [Compound 46]
no

is_below(Cell viability (%) (@ 3 uM), 70%) for N#CC(C#N)=NNc1ccc2nc(N3CCCC3)oc2c1 [Compound 45] ?
no

Does this compound meet the criterion Cell viability (%) (@ 3 uM) < 70%? COC1CCN(c2nc3ccc(NN=C(C#N)C#N)cc3o2)CC1 [Compound 17]
no

For this compound, is Cell viability (%) (@ 3 uM) lower than 70%? CN1CCN(c2nc3ccc(NN=C(C#N)C#N)cc3o2)CC1 [Compound 14]
no
